Test system: Plasmodium falciparum
EXPERIMENTAL PROTOCOL: Calibr Malaria Delayed Death Assay SOP
Format: functional, organism-based
Parameters: scale not given: in the data most compounds retested in dose-response had high values
PROTOCOL CONDITIONS: concentration 4.99e-06 (unit not given; other assays of the set use mol/L)
Among all 38,000 compounds or so, about 1,200 (3.2%) showed an effect of 50% or more. The median lay at about -58%. This excerpt belongs to a sample that is enriched for strong results.
// reported Percent Effect per item
Reply with just the number (in %).

# count of solved cases: 3
{"MOLECULE": "COc1cccc(CN(C)Cc2cc(C#N)ccc2F)c1OC", "OUTPUT UNIT": "%", "Percent Effect": -37.67}
{"MOLECULE": "COc1c(CNC2(c3ccc(Cl)cc3)CCC2)c(C)nn1C", "OUTPUT UNIT": "%", "Percent Effect": 58.68}
{"MOLECULE": "NC(=O)COc1ccc(CN2CCNC(C(=O)NC3CC3)C2)cc1Cl (configuration not stated)", "OUTPUT UNIT": "%", "Percent Effect": -16.07}

# input Which Percent Effect is reported for this molecule? COc1cccc(CN(C)Cn2nc(C(C)(C)C)ccc2=O)c1
# output -38.19

----------
Parameter: Percent Effect. Scope: all listed entries.
Test system: Plasmodium falciparum
EXPERIMENTAL PROTOCOL: Calibr Malaria Delayed Death Assay SOP
Type: functional, organism-based
Parameters: scale not given: in the data most compounds retested in dose-response had high values
PROTOCOL CONDITIONS: concentration 4.99e-06 (unit not given; other assays of the set use mol/L)
The whole screen tested about 38,000 compounds, of which about 1,200 (3.2%) showed an effect of 50% or more. The median lay at about -58%. Only a selection was taken, and strong results are over-represented in it overall.
Respond numerically; units are % and should not be typed.

The examples below pair each entry with its known result.
{"MOLECULE": "Cn1cc(NS(=O)(=O)CC2CCCCO2)cn1 (stereo unspecified)", "TARGET OF ASSAY": "Plasmodium falciparum", "Percent Effect / %": -113.3}
{"MOLECULE": "O=C(CC1CCc2ccccc21)N1CCC(O)(Cn2ccnc2)CC1 (stereo unspecified)", "TARGET OF ASSAY": "Plasmodium falciparum", "Percent Effect / %": -24.52}
{"MOLECULE": "CN(Cc1cncnc1)[C@H]1CN(C(=O)c2ccc[nH]2)[C@@H]2CCCO[C@@H]21", "TARGET OF ASSAY": "Plasmodium falciparum", "Percent Effect / %": -58.36}

# input Requested field: Percent Effect. Item: COc1nn(C)c2c1CCCN(C(=O)c1cscn1)C2
# output -85.03

# input Tell me the measured Percent Effect of COc1ccc(CNC(C)c2ccc(Cl)cc2)c(OC)c1OC (stereo unspecified) , please.
# output 80.38

# input Looking for the measured Percent Effect of COc1ncccc1NC(=O)NC(C)c1nncn1C (stereo unspecified) , can you help?
# output -34.42

# input // returns reported Percent Effect for input Cc1ccsc1C(O)CNC(=O)Cc1ccc(S(=O)(=O)C(C)C)cc1 (stereo unspecified)
# output 0.3509

# input I would be grateful if you could share the reported Percent Effect for COc1ccc(C(C)NCc2ccc(OC)c(OC)c2OC)cc1F.Cl (stereo unspecified) .
# output 34.25

----------
Consider the following compounds and their measured Percent Effect readings.
Tested on: Plasmodium falciparum
EXPERIMENTAL PROTOCOL: Calibr Malaria Delayed Death Assay SOP
Type: functional, organism-based
Design: scale not given: in the data most compounds retested in dose-response had high values
PROTOCOL CONDITIONS: concentration 4.99e-06 (unit not given; other assays of the set use mol/L)
In all, about 38,000 compounds went through this assay and about 1,200 (3.2%) showed an effect of 50% or more. The median lay at about -58%. This excerpt belongs to a sample that is enriched for strong results.
Respond with the bare value in %.

{"COMPOUND": "CN(CCO)Cc1cc(Cl)ccc1OCC(O)CN1CCCCCC1 (centres undefined)", "OUTPUT UNIT": "%", "OBSERVED MEASUREMENT": 81.18}

# input So what Percent Effect did CCC(O)CN1CCN(C(=O)Cc2cc(Cl)ccc2OC)CC1 (centres undefined) get with Plasmodium falciparum?
# output -20.59

# input Plasmodium falciparum / Percent Effect / O=C(Cn1cnnn1)NC(c1ccccc1)c1ccc2c(c1)CCCO2 (centres undefined) : value?
# output -75.22

# input Notebook entry, Plasmodium falciparum assay: Percent Effect of CN(C)C(=O)CO[C@H]1CN(Cc2ccc3c(c2)OCO3)[C@@H]2COC[C@H]12.O=C(O)C(F)(F)F = ?
# output -65.25

----------
Measured Percent Effect accompanies every entry in the list below.
Test system: Plasmodium falciparum
EXPERIMENTAL PROTOCOL: Calibr Malaria Delayed Death Assay SOP
Assay type: functional, organism-based
Set-up: scale not given: in the data most compounds retested in dose-response had high values
PROTOCOL CONDITIONS: concentration 4.99e-06 (unit not given; other assays of the set use mol/L)
The campaign covered roughly 38,000 compounds. About 1,200 (3.2%) showed an effect of 50% or more. The median lay at about -58%. Shown is part of a subset that was picked to be rich in strong results.
Reply numerically in %, unit not repeated.

# input For c1cncc(-c2ccc3c(c2)CCC32CCNCC2)c1 , what is its reported Percent Effect?
# output 86.19

# input Can you look up the measured Percent Effect of CSCc1noc(CN2CCCCC2CCc2ccc(O)cc2)n1 (centres undefined) for me?
# output -58.4

# input Any idea what its Percent Effect is? The molecule is COc1ccc(-c2cccc3c2OC(CN)C3)cc1F (centres undefined)
# output 62.39

# input Requested read-out: Percent Effect. Entry: Cc1nc(N2CCCC(N3CCCC3)C2)c2cnn(C)c2n1 (centres undefined)
# output -29.13

# input Can you share its Percent Effect? I mean this molecule: CN(Cc1nnc(C2CC2)n1C)S(=O)(=O)Cc1ccccc1F
# output -39.05

----------
Tested on: Plasmodium falciparum
EXPERIMENTAL PROTOCOL: Calibr Malaria Delayed Death Assay SOP
Format: functional, organism-based
Design: scale not given: in the data most compounds retested in dose-response had high values
PROTOCOL CONDITIONS: concentration 4.99e-06 (unit not given; other assays of the set use mol/L)
Screen size: about 38,000 compounds; about 1,200 (3.2%) showed an effect of 50% or more. The median lay at about -58%. The entries come from a sample that favours strong results as a whole.
Label Yes when Percent Effect is at or above -40%; otherwise label No.

Please review the entries below; each comes with its answer.
{"COMPOUND": "CN1CCN(Cc2ccc(F)cc2)Cc2cccnc21", "QUALITATIVE LABEL": "Yes"}
{"COMPOUND": "CCSc1nnc(CCNC(=O)OC(C)(C)C)o1", "QUALITATIVE LABEL": "No"}

# input # bool: Percent Effect of CC1CCN(CCNC(=O)c2ccn(-c3ccccc3)n2)CC1 >= -40%
# output Yes

# input Test whether the compound O=C(CC1CCCC1)N1C[C@@H]2CCN(c3cccnc3)C[C@@H]2C1.O=C(O)C(F)(F)F records Percent Effect of -40% or higher.
# output No

# input Is reported Percent Effect greater than or equal to -40% here: CC1CCCCN1CCNC(=O)c1ccn(-c2cccc(F)c2)n1 (configuration not stated)
# output Yes

# input Determine whether this compound has Percent Effect no lower than -40%: CC(C)OCCCNC(=O)CN1C=Nc2ccccc2S1(=O)=O
# output No

# input For this compound, is measured Percent Effect -40% or higher? O=C1CC(c2ccccc2F)c2c(n(C3CCCC3)[nH]c2=O)N1 (configuration not stated)
# output No

----------
We begin with a simple list: items and their reported Percent Effect.
Test system: Plasmodium falciparum
EXPERIMENTAL PROTOCOL: Calibr Malaria Delayed Death Assay SOP
Type: functional, organism-based
Design: scale not given: in the data most compounds retested in dose-response had high values
PROTOCOL CONDITIONS: concentration 4.99e-06 (unit not given; other assays of the set use mol/L)
Out of some 38,000 compounds screened, about 1,200 (3.2%) showed an effect of 50% or more. The median lay at about -58%. For the sample, strong results were picked, then their nearest neighbours and some compounds at random.
The response must be a number in % with no trailing unit.

Answered cases to consult:
{"MOLECULE": "N#Cc1cc(C#N)c(SCC(=O)Nc2ccc(F)cc2)nc1N", "OBSERVED MEASUREMENT": 66.77}
{"MOLECULE": "COc1ccc(Cl)cc1NC(=O)N1CCc2nc(NC(C)=O)sc2C1", "OBSERVED MEASUREMENT": -92.85}
{"MOLECULE": "CC1CCCN(CCCNC(=O)Cc2csc(-c3ccoc3)n2)C1 (stereo unspecified)", "OBSERVED MEASUREMENT": 9.027}
{"MOLECULE": "CSCC(=O)N1CCOC(c2nc(C(C)C)n[nH]2)C1 (stereo unspecified)", "OBSERVED MEASUREMENT": -97.79}
{"MOLECULE": "N#Cc1cc(C#N)c(SCC(=O)NCc2ccc(F)cc2)nc1N", "OBSERVED MEASUREMENT": -76.83}

Note: attention shifts to another entry.
# input Recorded Percent Effect of Cc1cnc(N2C(=O)CSC2c2cccs2)s1 (stereo unspecified) , please.
# output -26.83
